# RUN_DESCRIPTION: amyloid nucleation score (Sup35N fusion, yeast selection) (log enrichment); library NNK2; higher = more nucleation; inactive = no reads after selection;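 note: zero at mode of non-aggregating sequences after 7 days selection at 30°C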
Label rule, in plain words: amyloid nucleation score of 4 and up is T, under 4 is F.

ordered_residues=SIRQTCKFGYIMAWL label_class=T
ordered_residues=SAMSCPTKSAELRKCSYHPS label_class=F
ordered_residues=FVSGDHGTVWYIT label_class=F
ordered_residues=CVSEDDCLDYPKV label_class=F
ordered_residues=GSGSVAEIMRNVFLVCSW label_class=F
ordered_residues=YLFDLVFILEQYFWL label_class=F

Q: Reported amyloid nucleation score at or above 4? VLNISMLLWIYNTYGNDGKV
Ans: T

Q: Input FVLSMVLSIILLSLSHHLFG
Ans: F

Q: Input HRVFNEGASMGTCCSILLEM
Ans: T

Q: Input VDYLRYLIWFNRS
Ans: F

Q: Input KYNSCSYEGSRRILFSGACR
Ans: F

Q: Input GLSLLRGTNSGSAARLGANG
Ans: F

Q: Input YISVKMRSGRTSTLSDCVKA
Ans: F

Q: Input DKICNYVVGGEVYFSMNHYW
Ans: T
